Values compiled from patent US10183949B2.

Tested On: Human autotaxin enzyme (Homo sapiens)
Construct: purchased R&D System
Assay Overview: Evaluation of autotaxin inhibitor, 18:0 Lyso PC / choline assay (Test Example 2)
Assay type: biochemical
Study Conditions: human autotaxin enzyme, 18:0 Lyso PC substrate, choline assay, room temperature 2 hours; read-out: Inhibitor activity (IC50)
pIC50: −log10 of the molar value.
Give measured pIC50 for each item. Keep answers brief.

Q: Any idea what its pIC50 is? The compound is CCCCCc1nc(-c2ccc(Cl)cc2)cc(=O)n1CC(=O)NC1(C(=O)O)CCCC1
Ans: 7.00 to 8.00

Q: Another compound to look at: CCCCCc1nc(-c2ccc(Cl)cc2)cc(=O)n1CC(=O)NC1(C#N)CCCCC1
Ans: 6.00 to 7.00

Q: Same again, this time with O=C1CCC(CNC(=O)Cn2c(CCCC(F)(F)F)nc(-c3ccc(C(F)(F)F)cc3)cc2=O)CN1 (stereo not shown)
Ans: 6.00 to 7.00

Q: Ok, now N#CCCCn1c(-c2ccc(Cl)cc2)cc(=O)n(CC(=O)NC(Cc2ccccc2)C(=O)O)c1=O (stereo not shown)
Ans: ≤ 6.00

Q: Then CCCCCc1nc(-c2ccc(Cl)cc2)cc(=O)n1CC(=O)N[C@@H](CCc1ccccc1)C(=O)O ?
Ans: 7.00 to 8.00

Q: And the next one, CC(C)(C)C(=O)Nc1cc(Cl)ccc1-c1cc(=O)n(CC(=O)NCC(N)=O)cn1 ?
Ans: 6.00 to 7.00

Q: Record: CCCCCc1nc(-c2ccc(Cl)cc2)cc(=O)n1CC(=O)N1CCOCC1c1ccccc1 (stereo not shown)
Ans: 6.00 to 7.00

* * *

Give measured pIC50 for each item. Keep answers brief.
Tested On: Human autotaxin enzyme (Homo sapiens, UniProt Q13822)
Construct: purchased R&D System
Assay Overview: Evaluation of autotaxin inhibitor, 18:0 Lyso PC / choline assay (Test Example 2)
Type: biochemical
Study Conditions: human autotaxin enzyme, 18:0 Lyso PC substrate, choline assay, room temperature 2 hours; read-out: Inhibitor activity (IC50)
pIC50: −log10 of the molar value.

Q: Find the recorded pIC50 belonging to CCCCCc1nc(-c2ccc(Cl)cc2)cc(=O)n1CC(=O)NCCCCC(=O)O [Compound I-0064] and report it.
Ans: > 8.00

Q: Try CCCCCc1nc(-c2ccc(Cl)cc2)cc(=O)n1CC(=O)N1CCC(C(=O)OC)CC1 [Compound I-0113] next.
Ans: 7.00 to 8.00

Q: Okay, and N#CCCCNc1nc(-c2ccc(C#N)cc2)cc(=O)n1Cc1ccccc1 [Compound I-0105] ?
Ans: 6.00 to 7.00

Q: Try COC(=O)Nc1cc(Cl)ccc1-c1cc(=O)n(CC(=O)N2CCC(C(N)=O)CC2)c(C)n1 [Compound I-0458] next.
Ans: > 8.00

Q: Please give the result for COC(=O)Nc1cc(Cl)ccc1-c1cc(=O)n(Cc2cccc(C(=N)NO)c2)c(C)n1 [Compound I-0377] too.
Ans: 7.00 to 8.00

Q: Can you handle O=C(NC(CO)(CO)CO)c1cccc(Cn2c(CCCC(F)(F)F)nc(-c3ccc(Cl)cc3)cc2=O)c1 [Compound I-0188] next?
Ans: 6.00 to 7.00

Q: Same again, this time with COC(=O)Nc1cc(Cl)ccc1-c1cc(=O)n(CC(=O)NCc2cc(=O)[nH]o2)c(C)n1 [Compound I-0439]
Ans: > 8.00

Q: Do the same for COC(=O)Nc1cc(Cl)ccc1-c1cc(=O)n(CC(=O)NCc2c[nH]nn2)c(C)n1 [Compound I-0421] please
Ans: > 8.00

Q: Now try CCCCCc1nc(-c2ccc(Cl)cc2)cc(=O)n1Cc1cccc(C(=O)OC)c1 [Compound I-0074] .
Ans: ≤ 6.00

Q: Next entry: O=C(Cn1c(CCCC(F)(F)F)nc(-c2ccc(Cl)cc2)cc1=O)NCc1cc(=O)[nH]o1 [Compound I-0120]
Ans: > 8.00

Q: // next record CCCCCc1nc(-c2ccc(Cl)cc2)cc(=O)n1CC(=O)NC1(C(=O)O)CCC1 [Compound I-0073]
Ans: > 8.00

Q: And then CCCCCc1nc(-c2ccc(Cl)cc2)cc(=O)n1CC(=O)N(C)CCO [Compound I-0029] , what is it?
Ans: 6.00 to 7.00

Q: Cool, now CN(CC#N)C(=O)Cn1c(CCCC(F)(F)F)nc(-c2ccc(C(F)(F)F)cc2)cc1=O [Compound I-0297]
Ans: 7.00 to 8.00

Q: Also, COC(=O)c1ccc(Cn2c(CCCC(F)(F)F)nc(-c3ccc(Cl)cc3)cc2=O)s1 [Compound I-0312] please.
Ans: 6.00 to 7.00

Q: Then Cc1nc(-c2ccc(Cl)cc2NC(=O)C(C)(C)C)cc(=O)n1CC(=O)NC1(C#N)CC1 [Compound I-0376] ?
Ans: 7.00 to 8.00

Q: Field entry: CC(C)(CNC(=O)Cn1c(CCCC(F)(F)F)nc(-c2ccc(Cl)cc2)cc1=O)N1CCOCC1 [Compound I-0122]
Ans: 6.00 to 7.00

Q: Field entry: N#CC1(NC(=O)Cn2c(CCCC(F)(F)F)nc(N3CCC(Cc4ccccc4)C3)cc2=O)CC1 (stereo not drawn) [Compound I-0219]
Ans: 6.00 to 7.00

Q: Now consider CCCCCc1nc(-c2ccc(Cl)cc2)cc(=O)n1CC(=O)NCC(=O)N1CCC(C(=O)O)CC1 [Compound I-0059] and answer again.
Ans: 7.00 to 8.00

Q: One more compound: CCCCCc1nc(-c2ccc(Cl)cc2)cc(=O)n1CC(=O)NCc1ccc(C(=O)O)cc1 [Compound I-0041]
Ans: 7.00 to 8.00

Q: Also need CCNC(=O)N1CCC(NC(=O)Cn2cnc(-c3ccc(Cl)cc3NC(=O)C(C)(C)C)cc2=O)CC1 [Compound I-0487] , thanks.
Ans: 6.00 to 7.00

Q: Next record, please: Cc1nc(-c2ccc(Cl)cc2NC(=O)C2CC2)cc(=O)n1CC(=O)O [Compound I-0259]
Ans: ≤ 6.00

Q: Then NC(=S)C1CCN(C(=O)Cn2c(CCCC(F)(F)F)nc(-c3ccc(C(F)(F)F)cc3)cc2=O)CC1 [Compound I-0353] ?
Ans: 7.00 to 8.00

Q: // repeat for O=C(Cn1cnc(-c2ccc(Cl)cc2)cc1=O)NCCCNC(=O)c1cn[nH]n1 [Compound I-0402] and report
Ans: ≤ 6.00

Q: Please give the result for Cc1nc(-c2ccc(Cl)cc2NC(=O)C2CC2)cc(=O)n1CC(=O)NC1(C(F)(F)F)CC1 [Compound I-0461] too.
Ans: 7.00 to 8.00

Q: Same for COC(=O)Nc1cc(Cl)ccc1-c1cc(=O)n(CC(=O)NC2(C)CCS(=O)(=O)C2)c(C)n1 (stereo not drawn) [Compound I-0324]
Ans: 7.00 to 8.00

Q: Also need CCS(=O)(=O)N1CCN(C(=O)Cn2cnc(-c3ccc(Cl)cc3NC(=O)C(C)(C)C)cc2=O)CC1 [Compound I-0490] , thanks.
Ans: 6.00 to 7.00

Q: Also need Cc1nonc1CNC(=O)c1cccc(Cn2c(CCCC(F)(F)F)nc(-c3ccc(Cl)cc3)cc2=O)c1 [Compound I-0190] , thanks.
Ans: 6.00 to 7.00

Q: Next record, please: NS(=O)(=O)CCNC(=O)c1cccc(Cn2c(CCCC(F)(F)F)nc(-c3ccc(Cl)cc3)cc2=O)c1 [Compound I-0186]
Ans: 6.00 to 7.00

Q: Item: CCNC(=O)N1CCC(NC(=O)c2cccc(Cn3cnc(-c4ccc(Cl)cc4NC(=O)C(C)(C)C)cc3=O)c2)CC1 [Compound I-0500]
Ans: 7.00 to 8.00

Q: Next: CCCCCc1nc(-c2ccc(Cl)cc2)cc(=O)n1CC(=O)NCC(=O)NCC(=O)O [Compound I-0055]
Ans: > 8.00
